Biological target: T1, 4H348-bN
T1 chain: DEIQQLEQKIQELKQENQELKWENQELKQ
Experiment: two-hybrid library CCNG1;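 also: natural log of median RNA to DNA barcode read ratio; higher means stronger binding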
Observation type: interaction score

DKIQQLKQKIQELEQENQELEWKNQELEQ [4H2839-bN]	-0.511

(I) DEIQQLEQEIQELKQKNQELKWEIQELEQ [4H121-bN]
(II) DEIQQLEQKIQELKQENQELKWENQELKQ [4H348-bN]
(III) DKIQQLEQKNQELEQKIQELKWEIQELEQ [4H2473-bN]
(IV) DEIQQLEQENQELEQKNQELEWKIQELKQ [4H182-bN]
[in] Put the items in sequence by interaction score, from largest down. Hello, could you send the labels back in the order asked? Thank you.
[out] III, I, IV, II

(A) DKIQQLKQKIQELKQKIQELEWENQELEQ [4H2915-bN]
(B) DKIQQLKQKNQELKQKNQELEWEIQELEQ [4H3057-bN]
[in] Between A and B , which one shows the larger interaction score value? Refer to your chosen item by its label in the answer.
[out] A
